Each entry below lists one item and its recorded IC50 value.
Target: Aurora A kinase (Homo sapiens)
Construct: purchased
Sequence (O14965 1-403): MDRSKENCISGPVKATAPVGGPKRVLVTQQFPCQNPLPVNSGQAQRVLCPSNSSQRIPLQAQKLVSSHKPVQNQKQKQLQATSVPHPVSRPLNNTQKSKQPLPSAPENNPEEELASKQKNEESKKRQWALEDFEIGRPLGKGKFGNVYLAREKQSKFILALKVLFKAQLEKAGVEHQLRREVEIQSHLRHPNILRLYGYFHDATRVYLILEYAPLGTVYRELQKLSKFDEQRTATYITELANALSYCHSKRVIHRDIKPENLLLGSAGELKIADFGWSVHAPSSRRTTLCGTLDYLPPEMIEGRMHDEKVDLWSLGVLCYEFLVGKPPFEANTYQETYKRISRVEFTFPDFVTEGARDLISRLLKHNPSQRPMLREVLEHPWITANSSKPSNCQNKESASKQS
Assay: Aurora-A (human) kinase assay (Kemptide substrate)
Type: biochemical
Conditions: pIC50 is -log(IC50, M); 15 μM ATP; read-out: Kinase Inhibition pIC50 Aurora A kinase (converted)
property: IC50 (nM)

{"columns": ["compound", "property", "value.units", "meas.value"],
 "data": [
  ["Cc1nc(N(C)C)sc1-c1ccnc(N)n1 [Compound 88]", "IC50", "nM", 1580],
  ["Cc1ccc(-c2nc(C)c(-c3ccnc(Nc4ccc(N5CCOCC5)cc4)n3)s2)c(C)c1 [Compound 140]", "IC50", "nM", 1580],
  ["CCN(C)c1nc(C)c(-c2ccnc(Nc3ccc(N4CCOCC4)cc3)n2)s1 [Compound 120]", "IC50", "nM", 31.6],
  ["COc1ccc(C)c(Nc2nccc(-c3sc(C)nc3C)n2)c1 [Compound 113]", "IC50", "nM", 5010],
  ["Cc1nc(C)c(-c2ccnc(Nc3ccc(N4CCOCC4)c(C)c3)n2)s1 [Compound 220]", "IC50", "nM", 39.8],
  ["CCNc1nc(C)c(-c2ccnc(Nc3ccc(N4CCOCC4)c(Cl)c3)n2)s1 [Compound 134]", "IC50", "nM", 126],
  ["COCCNS(=O)(=O)c1cccc(Nc2nccc(-c3sc(N)nc3C)n2)c1 [Compound 55]", "IC50", "nM", 158]
]}

---

Biological target: Flt3 (FMS-like tyrosine kinase-3) (Homo sapiens, UniProt P36888)
Sequence (P36888 27-993): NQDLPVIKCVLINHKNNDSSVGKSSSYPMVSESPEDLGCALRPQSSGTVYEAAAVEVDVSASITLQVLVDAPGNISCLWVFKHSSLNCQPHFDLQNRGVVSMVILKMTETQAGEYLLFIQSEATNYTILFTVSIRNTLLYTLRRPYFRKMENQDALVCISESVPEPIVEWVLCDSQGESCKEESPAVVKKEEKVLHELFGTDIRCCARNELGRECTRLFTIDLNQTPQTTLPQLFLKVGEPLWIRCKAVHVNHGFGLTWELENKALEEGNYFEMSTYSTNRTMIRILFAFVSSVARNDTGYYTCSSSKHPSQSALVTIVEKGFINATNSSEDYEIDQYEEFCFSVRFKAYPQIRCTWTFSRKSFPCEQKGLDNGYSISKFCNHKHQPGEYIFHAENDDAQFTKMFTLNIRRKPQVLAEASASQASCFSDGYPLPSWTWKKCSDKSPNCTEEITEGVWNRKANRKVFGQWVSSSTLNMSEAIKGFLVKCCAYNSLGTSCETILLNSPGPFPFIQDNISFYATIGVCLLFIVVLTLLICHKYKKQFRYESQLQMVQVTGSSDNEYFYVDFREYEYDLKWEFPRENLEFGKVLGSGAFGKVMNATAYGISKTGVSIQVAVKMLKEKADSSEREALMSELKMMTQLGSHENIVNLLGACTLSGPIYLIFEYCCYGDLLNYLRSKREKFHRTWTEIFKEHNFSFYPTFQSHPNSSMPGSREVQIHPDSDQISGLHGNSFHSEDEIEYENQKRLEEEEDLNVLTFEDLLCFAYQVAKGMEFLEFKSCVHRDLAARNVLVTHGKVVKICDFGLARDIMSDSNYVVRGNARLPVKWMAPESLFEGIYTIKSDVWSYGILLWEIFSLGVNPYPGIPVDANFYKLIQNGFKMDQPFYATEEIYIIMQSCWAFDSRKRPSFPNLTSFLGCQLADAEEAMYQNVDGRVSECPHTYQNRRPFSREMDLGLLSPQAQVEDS
Assay: Kinase assay (radioactive phosphate incorporation), Flt3
Format: biochemical
Details: pIC50 is -log(IC50, M), read-out: Kinase Inhibition pIC50 Flt3 (converted)
Mark Satisfied only when IC50 stays strictly below 100 nM. Values equal to the cut-off are Not satisfied.

{"columns": ["compound", "classification"],
 "data": [
  ["COCCNS(=O)(=O)c1cccc(Nc2nccc(-c3sc(N)nc3C)n2)c1 [Compound 55]", "Not satisfied"],
  ["CCNS(=O)(=O)c1cccc(Nc2nccc(-c3sc(NC)nc3C)n2)c1 [Compound 31]", "Satisfied"],
  ["CNc1nc(C)c(-c2ccnc(Nc3ccc(C)c(S(=O)(=O)N4CCOCC4)c3)n2)s1 [Compound 37]", "Not satisfied"],
  ["CCNc1nc(C)c(-c2ccnc(Nc3ccc(N4CCNCC4)cc3)n2)s1 [Compound 59]", "Satisfied"],
  ["COc1cc(Nc2nccc(-c3sc(C)nc3C)n2)cc(OC)c1 [Compound 175]", "Satisfied"],
  ["CNc1nc(C)c(-c2ccnc(Nc3cccc(N4CCN(C(C)=O)CC4)c3)n2)s1 [Compound 3]", "Satisfied"],
  ["CC(=O)N1CCN(c2ccc(Nc3nccc(-c4sc(NCCc5ccccc5)nc4C)n3)cc2)CC1 [Compound 163]", "Not satisfied"],
  ["Cc1nc(N)sc1-c1ccnc(Nc2ccc(N3CCNCC3)cc2)n1 [Compound 61]", "Satisfied"],
  ["Cc1nc(C)c(-c2ccnc(Nc3ccc(O)c(CN4CCOCC4)c3)n2)s1 [Compound 151]", "Satisfied"],
  ["CC(=O)NCc1cccc(Nc2nccc(-c3sc(-c4cccnc4)nc3C)n2)c1 [Compound 101]", "Not satisfied"],
  ["Cc1nc(C)c(-c2ccnc(Nc3cccc(N4CCOCC4)c3)n2)s1 [Compound 152]", "Satisfied"],
  ["Cc1nc(N)sc1-c1ccnc(Nc2cccc(S(=O)(=O)NCCO)c2)n1 [Compound 77]", "Not satisfied"],
  ["Cc1nc(N)sc1-c1ccnc(Nc2ccc(S(=O)(=O)NCCO)cc2)n1 [Compound 68]", "Not satisfied"],
  ["CNc1nc(C)c(-c2ccnc(Nc3cccc(S(N)(=O)=O)c3)n2)s1 [Compound 19]", "Satisfied"],
  ["CC(=O)N1CCN(c2cccc(Nc3nccc(-c4sc(C)nc4C)n3)c2)CC1 [Compound 46]", "Not satisfied"],
  ["CCNc1nc(C)c(-c2ccnc(Nc3cc(OC)c(OC)c(OC)c3)n2)s1 [Compound 24]", "Satisfied"],
  ["Cc1nc(N(C)c2cccnc2)sc1-c1ccnc(Nc2ccc(N3CCOCC3)cc2)n1 [Compound 162]", "Satisfied"]
]}
